- Tested on: canine parvovirus 2c (CPV-2c)
- EXPERIMENTAL_PROTOCOL: CPE visual scoring assay, CPV-2c in CrFK cells
- Assay type: cell-based
- SETUP_CONDITIONS: Canine parvovirus, CRFK; Table 4a; CPE visual scoring assay; read-out: EC50-value (μM) for CPV-2c
Reported EC50 by item:
Give just the number in µM; leave the unit off.

1) CCC1(N)C2CC3CC(C2)CC1C3 (centres unmarked) [2-ethyladamantan-2-amine]    4.2

Continue with the compound presented below.
Look up EC50 with canine parvovirus 2c (CPV-2c) for this compound: CC1(N)C2CC3CC(C2)CC1C3 (centres unmarked) [2-methyladamantan-2-amine]
2.25
